Source of measurements: patent US11655235B2

target: recombinant human PREP (Homo sapiens, UniProt P48147); construct: purchased R&D System; assay: PREP inhibition, fluorogenic substrate Z-Gly-Pro-AMC; format: biochemical; details: Inhibitory Activity (IC50, nM) PREP, 25° C., Z-Gly-Pro-AMC substrate
# maps each entry to its IC50
Note: unit nM is implicit; provide only the numeric part.

Would you please look over these solved cases?
molecule | target system | experimental result
N#C[C@@H]1CCCN1C(=O)CN1CC[C@@H](Nc2cncc3ccccc23)C1 [Example 24] | recombinant human PREP (Homo sapiens, UniProt P48147) | 5460
N#C[C@@H]1C[C@H](F)CN1C(=O)CN1CC[C@H](NC(=O)c2coc3cc(F)ccc23)C1 [Example 29] | recombinant human PREP (Homo sapiens, UniProt P48147) | 6170
CN(c1ccc2ncccc2c1)[C@@H]1CCN(CC(=O)N2CCC[C@H]2C#N)C1 [Example 140] | recombinant human PREP (Homo sapiens, UniProt P48147) | 4260
N#C[C@@H]1CC(F)(F)CN1C(=O)CN1CC[C@H](Oc2ccnc3cc(Cl)ccc23)C1 [Example 107] | recombinant human PREP (Homo sapiens, UniProt P48147) | 6500
N#C[C@@H]1C[C@H](F)CN1C(=O)CN1CC[C@H](Nc2cncc3ccoc23)C1 [Example 28] | recombinant human PREP (Homo sapiens, UniProt P48147) | 6600

**Query** What IC50 appears in the records for this molecule with recombinant human PREP (Homo sapiens, UniProt P48147)? CN(c1ccc2cccnc2c1)[C@H]1CCN(CC(=O)N2CCC[C@H]2C#N)C1 [Example 146]
**Result** 4590

**Query** What IC50 appears in the records for this molecule with recombinant human PREP (Homo sapiens, UniProt P48147)? CN(c1cnc2ccccc2c1)[C@H]1CCN(CC(=O)N2CCC[C@H]2C#N)C1 [Example 142]
**Result** 4510

**Query** What IC50 appears in the records for this molecule with recombinant human PREP (Homo sapiens, UniProt P48147)? N#C[C@@H]1C[C@H](F)CN1C(=O)CN1CCC(Nc2cc(F)cc3ncccc23)CC1 [Example 132]
**Result** 2820

---

Target: Recombinant human FAP (Homo sapiens)
Construct: purchased R&D systems
Sequence (Q12884 1-760): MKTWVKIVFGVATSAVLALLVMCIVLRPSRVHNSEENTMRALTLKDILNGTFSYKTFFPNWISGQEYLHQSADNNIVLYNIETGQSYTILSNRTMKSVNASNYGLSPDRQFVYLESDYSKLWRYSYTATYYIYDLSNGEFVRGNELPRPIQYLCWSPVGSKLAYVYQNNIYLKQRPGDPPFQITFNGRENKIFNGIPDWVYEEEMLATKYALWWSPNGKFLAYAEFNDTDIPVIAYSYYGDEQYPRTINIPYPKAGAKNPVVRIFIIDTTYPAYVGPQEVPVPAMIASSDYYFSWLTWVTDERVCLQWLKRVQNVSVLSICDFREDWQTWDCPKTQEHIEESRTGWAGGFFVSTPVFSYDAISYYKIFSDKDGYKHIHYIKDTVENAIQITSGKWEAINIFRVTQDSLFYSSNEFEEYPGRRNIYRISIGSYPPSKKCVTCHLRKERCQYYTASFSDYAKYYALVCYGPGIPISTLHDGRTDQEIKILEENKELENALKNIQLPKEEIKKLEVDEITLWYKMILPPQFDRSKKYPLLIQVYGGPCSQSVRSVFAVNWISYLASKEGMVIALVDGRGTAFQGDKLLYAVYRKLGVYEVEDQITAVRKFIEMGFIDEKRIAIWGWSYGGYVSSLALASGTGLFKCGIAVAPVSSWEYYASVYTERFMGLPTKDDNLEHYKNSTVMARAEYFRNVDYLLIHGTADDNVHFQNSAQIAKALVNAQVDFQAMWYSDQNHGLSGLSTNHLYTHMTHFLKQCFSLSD
Assay: FAP inhibition, fluorogenic substrate Z-Gly-Pro-AMC
Type: biochemical
Conditions: 25° C., Z-Gly-Pro-AMC substrate
# note: boundary value 20 nM maps to n; IC50 below it maps to y

Example results:
molecule | label
N#C[C@@H]1CCCN1C(=O)CN1CC[C@H](NC(=O)c2cccc3ncccc23)C1 [Example 32] | n
N#C[C@@H]1CC(F)(F)CN1C(=O)CN1CC[C@H](Nc2cccc3ccoc23)C1 [Example 11] | y
N#C[C@@H]1CCCN1C(=O)CN1CC[C@H](NC(=O)c2ccc3ccoc3c2)C1 [Example 57] | n

**Query** Report whether reported IC50 is lower than 20 nM (strictly) for CN(c1cccc2ncccc12)[C@H]1CCN(CC(=O)N2CCC[C@H]2C#N)C1 [Example 144]
**Result** y

**Query** Report whether reported IC50 is lower than 20 nM (strictly) for N#C[C@@H]1CCCN1C(=O)CN1CCC(Oc2cnc3ccccc3c2)CC1 [Example 117]
**Result** n

**Query** Report whether reported IC50 is lower than 20 nM (strictly) for N#C[C@@H]1CCCN1C(=O)CN1CC[C@H](Oc2ccc3ncccc3c2)C1 [Example 63]
**Result** n

**Query** Report whether reported IC50 is lower than 20 nM (strictly) for N#C[C@@H]1CC(F)(F)CN1C(=O)CN1CC[C@H](Nc2ccccc2-c2ccccc2)C1 [Example 13]
**Result** n

**Query** Report whether reported IC50 is lower than 20 nM (strictly) for N#C[C@@H]1CCCN1C(=O)CN1CC[C@H](NC(=O)Cc2cccc3ccccc23)C1 [Example 38]
**Result** n

**Query** Report whether reported IC50 is lower than 20 nM (strictly) for N#C[C@@H]1CCCN1C(=O)CN1CC[C@H](Oc2cc3ccccc3cn2)C1 [Example 69]
**Result** n

**Query** Report whether reported IC50 is lower than 20 nM (strictly) for N#C[C@@H]1CCCN1C(=O)CN1CC[C@@H](Nc2cnc3ccccc3c2)C1 [Example 17]
**Result** y

**Query** Report whether reported IC50 is lower than 20 nM (strictly) for N#C[C@@H]1CCCN1C(=O)CN1CCC(Nc2ccnc3ccccc23)CC1 [Example 111]
**Result** y

**Query** Report whether reported IC50 is lower than 20 nM (strictly) for CN(c1cnc2ccccc2c1)[C@@H]1CCN(CC(=O)N2CCC[C@H]2C#N)C1 [Example 138]
**Result** n

**Query** Report whether reported IC50 is lower than 20 nM (strictly) for CN(c1cnc2ccccc2c1)[C@H]1CCN(CC(=O)N2CCC[C@H]2C#N)C1 [Example 142]
**Result** y

**Query** Report whether reported IC50 is lower than 20 nM (strictly) for CN(c1ccc2ncccc2c1)[C@H]1CCN(CC(=O)N2CCC[C@H]2C#N)C1 [Example 145]
**Result** y

**Query** Report whether reported IC50 is lower than 20 nM (strictly) for N#C[C@@H]1CCCN1C(=O)CN1CC[C@H](Oc2cccc3cc4ccccc4nc23)C1 [Example 96]
**Result** n

**Query** Report whether reported IC50 is lower than 20 nM (strictly) for N#C[C@@H]1CCCN1C(=O)CN1CCC(Oc2ccnc3ccccc23)CC1 [Example 118]
**Result** y

---

Molecular target: recombinant human PREP (Homo sapiens, UniProt P48147)
Construct: purchased R&D System
Sequence (P48147 1-710): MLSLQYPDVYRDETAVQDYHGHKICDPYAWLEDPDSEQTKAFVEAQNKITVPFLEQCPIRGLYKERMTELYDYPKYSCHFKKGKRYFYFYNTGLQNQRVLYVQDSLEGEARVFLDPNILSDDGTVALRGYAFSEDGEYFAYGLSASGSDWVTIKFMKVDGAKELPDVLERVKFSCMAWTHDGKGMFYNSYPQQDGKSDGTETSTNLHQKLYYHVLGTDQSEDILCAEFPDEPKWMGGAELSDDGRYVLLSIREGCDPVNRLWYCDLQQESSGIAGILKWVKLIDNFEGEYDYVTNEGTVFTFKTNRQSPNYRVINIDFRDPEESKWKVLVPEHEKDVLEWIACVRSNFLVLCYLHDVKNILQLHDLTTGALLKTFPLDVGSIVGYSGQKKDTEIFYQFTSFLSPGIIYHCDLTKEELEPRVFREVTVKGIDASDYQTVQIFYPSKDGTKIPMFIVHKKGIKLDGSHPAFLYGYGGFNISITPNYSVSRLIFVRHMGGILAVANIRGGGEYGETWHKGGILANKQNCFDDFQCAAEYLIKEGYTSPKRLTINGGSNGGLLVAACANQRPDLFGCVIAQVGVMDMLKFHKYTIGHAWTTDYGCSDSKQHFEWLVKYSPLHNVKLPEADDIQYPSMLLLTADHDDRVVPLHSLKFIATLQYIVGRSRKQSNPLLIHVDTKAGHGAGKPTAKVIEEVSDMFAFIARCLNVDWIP
Assay: PREP inhibition, fluorogenic substrate Z-Gly-Pro-AMC
Format: biochemical
Settings: Inhibitory Activity (IC50, nM) PREP, recombinant human PREP
quantity: IC50 (nM)
Note: unit nM is implicit; provide only the numeric part.

smiles code | unit info | IC50
N#C[C@@H]1C[C@H](F)CN1C(=O)CN1CCC(Nc2ccc(F)c3cnccc23)CC1 | nM | 4830
N#C[C@@H]1C[C@H](F)CN1C(=O)CN1CC[C@@H](Nc2cc(C(F)(F)F)cc3ncccc23)C1 | nM | 5360
CNC(=O)c1ccc(N[C@H]2CCN(CC(=O)N3C[C@@H](F)C[C@H]3C#N)C2)c2cccnc12 | nM | 2450

**Query** Form field: reported IC50 of "N#C[C@@H]1C[C@H](F)CN1C(=O)CN1CCC(Nc2ccc(OC(F)(F)F)c3ncccc23)CC1"
**Result** 4580

**Query** Form field: reported IC50 of "N#C[C@@H]1C[C@H](F)CN1C(=O)CN1CC[C@@H](Nc2cnc3ccccc3c2)C1"
**Result** 3970

**Query** Form field: reported IC50 of "N#C[C@@H]1C[C@H](F)CN1C(=O)CN1CCC(Nc2ccnc3c(C(F)(F)F)cccc23)CC1"
**Result** 637

**Query** Form field: reported IC50 of "N#C[C@@H]1C[C@H](F)CN1C(=O)CN1CCC(Oc2ccc3ccncc3c2)CC1"
**Result** 990
